test system: CAPAN-1; test: Antiproliferative activity against KRAS-dependent human Capan1 cells after 48 hrs by CCK8 assay; settings: CAPAN-1, 48 h
Provide the recorded pIC50 for the entries that follow.
Entry type: numeric. Quantity: pIC50, the -log10 of concentration in molar units.

Lab note: need pIC50 for O=C1c2cc(F)ccc2N(CC2CCCC2)C(c2ccccc2F)N1C1CCN(CCCn2ccnc2-c2ccccc2)CC1 (stereo not given) on CAPAN-1, anyone have it?
4.91

Fill in the recorded pIC50 for this compound, with CAPAN-1 as test system: O=C1c2cc(F)ccc2N(CC2CCCCC2)C(c2ccccc2F)N1C1CCN(CCCn2ccnc2-c2ccccc2)CC1 (stereo not given)
4.26

Could you share what pIC50 was measured for Cc1ccc(-n2nc3c(=O)n(CCCC(=O)NCC(C)c4ccccc4)nc(C)c3c2C)cc1 (stereo not given) , tested on CAPAN-1?
4.32

Query for CAPAN-1: what pIC50 does the record show for O=C1c2cc(F)ccc2N(CC2CCC2)C(c2ccccc2F)N1C1CCN(CCCn2ccnc2-c2ccccc2)CC1 (stereo not given) ?
4.94

Tell me reported pIC50 for O=C1c2cc(F)ccc2N(CC2CC2)C(c2ccccc2F)N1C1CCN(CCCn2ccnc2-c2ccccc2)CC1 (stereo not given) , tested with CAPAN-1.
5.06

Notebook: pull reported pIC50 for CAPAN-1, entry COc1ccc2c(c1)C(=O)N(C1CCN(CCCn3ccnc3-c3ccccc3)CC1)C(c1ccccc1F)N2 (stereo not given)
4.13

Can you look up pIC50 on CAPAN-1 for CN1c2ccc(F)cc2C(=O)N(C2CCN(CCCn3ccnc3-c3ccccc3)CC2)C1c1ccccc1F (stereo not given) ?
4.33

Report pIC50 for O=C1c2ccccc2NC(c2ccccn2)N1c1ccc(OCCn2ccnc2-c2ccccc2)cc1 (stereo not given) tested on CAPAN-1.
4.28

Param readout = pIC50; param system = CAPAN-1; param query = Cc1ccc2c(c1)C(=O)N(C1CCN(CCCn3ccnc3-c3ccccc3)CC1)C(c1ccccc1F)N2 (stereo not given) ; response: value
4.38

Quick check: pIC50 on CAPAN-1, item Cc1ccc2c(c1)NC(c1ccccc1F)N(C1CCN(CCCn3ccnc3-c3ccccc3)CC1)C2=O (stereo not given) ?
4.11

Checklist item: pIC50 tested on CAPAN-1, entry O=C1c2ccccc2NC(c2ccccc2F)N1C1CCN(CCCn2ccnc2-c2ccccc2)CC1 (stereo not given) , value?
4.47
